Target: T1, Mouse FRα ECD-Avi-His (mouse, biotin on the Avi-tag (BirA) in the HTRF assays)
T1 construct: Soluble region with C-terminal Avi and His tags
T1 sequence (chain, as listed by the source limits assumed): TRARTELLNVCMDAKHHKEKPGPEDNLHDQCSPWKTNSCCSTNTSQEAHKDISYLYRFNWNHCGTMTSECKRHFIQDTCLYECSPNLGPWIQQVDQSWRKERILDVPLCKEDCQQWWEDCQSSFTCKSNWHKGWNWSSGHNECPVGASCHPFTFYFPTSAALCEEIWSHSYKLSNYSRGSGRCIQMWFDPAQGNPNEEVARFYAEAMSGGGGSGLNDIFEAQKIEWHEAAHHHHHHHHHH
Experiment: HTRF antigen binding assay; hybridoma supernatant, 1 nM biotinylated antigen
Protocol: HTRF assays were performed in 384-well white shallow well non-binding plates (Corning, 4513) in assay buffer containing phosphate-buffered saline (PBS) (Life Technologies, 14190), 0.100 v/v bovine serum albumin (BSA) (Sigma, A9576), and 0.4 M potassium fluoride (VWR International, 26820). […]
quantity.name: binding result

binder | result
AB1370095 (hybridoma IgG) (antibody, V domains shown, IgG from hybridoma of Del-1 humanised mouse, tested as supernatant ('mouse IgG', detected with anti-mouse IgG) or Phynexus purified) VH: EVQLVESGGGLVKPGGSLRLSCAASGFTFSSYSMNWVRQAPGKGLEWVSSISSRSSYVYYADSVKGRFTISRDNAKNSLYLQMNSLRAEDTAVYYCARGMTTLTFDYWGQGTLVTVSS VL: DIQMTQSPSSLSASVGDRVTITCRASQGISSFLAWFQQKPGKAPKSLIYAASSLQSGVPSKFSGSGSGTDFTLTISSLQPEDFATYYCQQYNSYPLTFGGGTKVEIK | no binding
AB1370035 (hybridoma IgG) (antibody, V domains shown, IgG from hybridoma of Del-1 humanised mouse, tested as supernatant ('mouse IgG', detected with anti-mouse IgG) or Phynexus purified) VH: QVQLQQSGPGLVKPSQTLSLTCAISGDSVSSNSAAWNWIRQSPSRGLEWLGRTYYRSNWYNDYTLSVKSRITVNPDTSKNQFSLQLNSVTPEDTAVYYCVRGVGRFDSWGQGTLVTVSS VL: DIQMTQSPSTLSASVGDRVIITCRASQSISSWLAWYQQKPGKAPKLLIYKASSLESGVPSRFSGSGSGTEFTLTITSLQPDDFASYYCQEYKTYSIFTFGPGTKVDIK | no binding
AB1370083 (hybridoma IgG) (antibody, V domains shown, IgG from hybridoma of Del-1 humanised mouse, tested as supernatant ('mouse IgG', detected with anti-mouse IgG) or Phynexus purified) VH: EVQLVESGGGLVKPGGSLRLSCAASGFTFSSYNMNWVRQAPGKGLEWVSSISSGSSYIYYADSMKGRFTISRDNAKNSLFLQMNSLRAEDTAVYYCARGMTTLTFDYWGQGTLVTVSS VL: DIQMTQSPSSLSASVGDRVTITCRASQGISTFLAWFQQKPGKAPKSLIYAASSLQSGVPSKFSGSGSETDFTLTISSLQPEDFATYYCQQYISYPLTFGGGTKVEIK | no binding
